Sourced from the supplement of paper PMC10567573

B1: ZBTB22 (parent)
chain: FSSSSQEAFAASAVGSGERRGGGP

variants of: B1; test: protein stability index of a GFP-peptide fusion (GPS, HEK-293T) (PSI 1-6); higher = more stable; details: c terminus: a fixed tail appended;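 note: lentivirally expressed fusions sorted by FACS into six bins by GFP to DsRed ratio, PSI derived from sequencing read proportions per bin multiplied by bin number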
Examples of variants with documented protein stability index follow.
Field format: numeric only.

Use the examples below as a reference point.
>  <MUTATION_ANNOTATION>
R19N

>  <protein stability index>
3.49

$$$$
>  <MUTATION_ANNOTATION>
S2V

>  <protein stability index>
2.29

$$$$
>  <MUTATION_ANNOTATION>
G17W

>  <protein stability index>
2.85

$$$$
>  <MUTATION_ANNOTATION>
S12R

>  <protein stability index>
2.61

$$$$
>  <MUTATION_ANNOTATION>
E18Y

>  <protein stability index>
2.69

$$$$
>  <MUTATION_ANNOTATION>
S5D

>  <protein stability index>
4.27

$$$$
>  <MUTATION_ANNOTATION>
G21V

>  <protein stability index>
2.84

$$$$
>  <MUTATION_ANNOTATION>
S3V

>  <protein stability index>
4.41

$$$$
>  <MUTATION_ANNOTATION>
F1I

>  <protein stability index>
5.3

$$$$
>  <MUTATION_ANNOTATION>
A8N

>  <protein stability index>
4.21

$$$$

Problem: Fill in: protein stability index of G17F is ___
Solution: 3.18

Problem: Fill in: protein stability index of G17Y is ___
Solution: 3.45
